B1: LCOR (parent)
chain: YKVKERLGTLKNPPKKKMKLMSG

variants of: B1; experiment: protein stability index of a GFP-peptide fusion (GPS, HEK-293T) (PSI 1-6); higher = more stable; conditions: c terminus: native;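 also: lentivirally expressed fusions sorted by FACS into six bins by GFP to DsRed ratio, PSI derived from sequencing read proportions per bin multiplied by bin number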
protein stability index for assorted variants

# VARIANT NOTATION, protein stability index
rows = [
    ("K17Q", 2.96),
    ("K17F", 2.02),
    ("K17N", 1.83),
    ("Y1E", 2.15),
    ("G23E", 3.19),
    ("G8K", 1.47),
    ("K19T", 2.38),
    ("K19Q", 3.03),
    ("K4N", 2.97),
    ("E5N", 1.25),
    ("K15W", 3.79),
    ("L7G", 3.22),
    ("V3S", 1.92),
    ("L10I", 1.5),
    ("M18R", 2.2),
    ("L10A", 2.38),
    ("Y1F", 1.23),
    ("K17V", 1.68),
    ("N12Y", 2.39),
    ("G8E", 2.72),
    ("G23A", 2.29),
    ("L10W", 2.42),
]
